# assay.system: pre-pro-insulin glargine
Please respond with 1 when measured desThr is strictly beneath 2 area %, and with -1 in all other cases.

Previously resolved entries follow.
trypsin variant SEQ ID NO: 88 (protein) IVGGYTCAANSIPYQVSLNSGSHRCGGSLINSQWVVSAAHCYKPRIQVRLGEHNIHVLEGNEQFINAAKIITHPNFNPNTLDNDIMLIKLSSPATLNSHVATVSLPTSCAAAGTECLISGWGNTSSSGSSMPSLLQCLKAPVLSDSSCKSSYPGQITGNMICVGFLEGGKDSCQGDSGGPVVCNGQLQGIVSSGYGCAQKNKPGVYTKVCNYVNWIQQTIAAN = 1
trypsin variant SEQ ID NO: 95 (protein) IVGGYTCAANSIPYQVSLNSGSHRCGGSLINSQWVVSAAHCYKPRIQVRLGEHNIHVLEGNEQFINAAKIITHPNFNPNTLDNDIMLIKLSSPATLNSHVATVSLPRSCAAAGTECLISGWGNTSSSGSSMPSLLQCLKAPVLSDSSCKSSYPGQITGNMICVGFLEGGADACQGDSGGPVVCNGQLQGIVSSGYGCAQKNKPGVYTKVCNYVNWIQQTIAAN = 1
trypsin variant SEQ ID NO: 78 (protein) IVGGYTCAANSIPYQVSLNSGSHRCGGSLINSQWVVSAAHCYKSRIQVRLGEHNIHVLEGNEQFINAAKIITHPNFNPNTLDNDIMLIKLSSPATLNSHVATVSLPTSCAAAGTECLISGWGNTCSSGSSYPSLLQCLKAPVLSDSSCKSSYPGQITGNMICVGFLEGGKDACQGDSGGPVVCNGQLQGIVSSGYGCAQKNKPGVYTKVCNYVNWIQQTIAAN = 1
trypsin variant SEQ ID NO: 9 (protein) IVGGYTCAANSIPYQVSLNSGSHRCGGSLINSQWVVSAAHCYKSRIQVRLGEHNIDVLEGNEQFINAAKIITHPNFNGNTLDNDIMLIKLSSPATLNSYVATVSLPRSCAAAGTECLISGWGNTKSSGSSYPSLLQCLKAPVLSDSSCKSSYPGQITGNMICVGFLEGGKDACQGDSGGPVVCNGQLQGIVSSGYGCAQKNKPGVYTKVCNYVNWIQQTIAAN = -1

Is the reported desThr for trypsin variant SEQ ID NO: 94 (protein) IVGGYTCAANSIPYQVSLNSGSHRCGGSLINSQWVVSAAHCYKPRIQVRLGEHNIHVLEGNEQFINAAKIITHPNFNGNTLDNDIMLIKLSSPATLNSNVATVSLPRSCAAAGTECLISGWGNTCSSGSSMPSLLQCLKAPVLSDSSCKSSYPGQITGNMICVGFLEGGADACQGDSGGPVVCNGQLQGIVSSGYGCAQKNKPGVYTKVCNYVNWIQQTIAAN strictly below 2 area %?
1
